Data origin, for the record: paper PMC12860872

assay: Extrapolated human dosimetry (OLINDA/EXM, ICRP-89 phantoms); details: ICRP 89 Adult Female, extrapolated
Measurement Name: Absorbed dose (AD average) Stomach Wall (mGy/Mbq)
The figure you give is taken to be in mGy/Mbq; do not add the unit.

Q: Which Absorbed dose (AD average) Stomach Wall value belongs to N#C[C@@H]1CC(F)(F)CN1C(=O)CNC(=O)c1ccnc2ccc(OCCCCNC(=O)CC[C@H](NC(=O)CCC(C(=O)O)N3CCN(CC(=O)[O-])CCN(CC(=O)[O-])CCN(CC(=O)[O-])CC3)C(=O)NCCCCOc3ccc4nccc(C(=O)NCC(=O)N5CC(F)(F)C[C@H]5C#N)c4c3)cc12.[161Tb+3] (stereo partly shown) [[^161Tb]Tb-DOTAGA.Glu.(FAPI)2] ?
A: 4.21E-02

###

experiment: Extrapolated human dosimetry (OLINDA/EXM, ICRP-89 phantoms); details: ICRP 89 Adult Male, extrapolated
compounds and their reported Absorbed dose (AD average) Brain
The figure you give is taken to be in mGy/Mbq; do not add the unit.

Compound	Absorbed dose (AD average) Brain / mGy/Mbq
N#C[C@@H]1CC(F)(F)CN1C(=O)CNC(=O)c1ccnc2ccc(OCCCCNC(=O)CC[C@H](NC(=O)CCC(C(=O)O)N3CCN(CC(=O)[O-])CCN(CC(=O)[O-])CCN(CC(=O)[O-])CC3)C(=O)NCCCCOc3ccc4nccc(C(=O)NCC(=O)N5CC(F)(F)C[C@H]5C#N)c4c3)cc12.[161Tb+3] (stereo partly shown) [[^161Tb]Tb-DOTAGA.Glu.(FAPI)2]	2.76E-02
N#C[C@@H]1CC(F)(F)CN1C(=O)CNC(=O)c1ccnc2ccc(OCCCCNC(=O)CC[C@H](NC(=O)CCC(C(=O)O)N3CCN(CC(=O)[O-])CCN(CC(=O)[O-])CCN(CC(=O)[O-])CC3)C(=O)NCCCCOc3ccc4nccc(C(=O)NCC(=O)N5CC(F)(F)C[C@H]5C#N)c4c3)cc12.[177Lu+3] (stereo partly shown) [[^177Lu]Lu-DOTAGA.Glu.(FAPI)2]	1.98E-02
N#C[C@@H]1CC(F)(F)CN1C(=O)CNC(=O)c1ccnc2ccc(OCCCCNC(=O)CC[C@H](NC(=O)CN3CCN(CC(=O)[O-])CCN(CC(=O)[O-])CCN(CC(=O)[O-])CC3)C(=O)NCCCCOc3ccc4nccc(C(=O)NCC(=O)N5CC(F)(F)C[C@H]5C#N)c4c3)cc12.[161Tb+3] [[^161Tb]Tb-DO3A.Glu.(FAPI)2]	2.80E-02

Now for another entry.
Q: Which Absorbed dose (AD average) Brain value belongs to N#C[C@@H]1CC(F)(F)CN1C(=O)CNC(=O)c1ccnc2ccc(OCCCCNC(=O)CC[C@H](NC(=O)CN3CCN(CC(=O)[O-])CCN(CC(=O)[O-])CCN(CC(=O)[O-])CC3)C(=O)NCCCCOc3ccc4nccc(C(=O)NCC(=O)N5CC(F)(F)C[C@H]5C#N)c4c3)cc12.[177Lu+3] [[^177Lu]Lu-DO3A.Glu.(FAPI)2] ?
A: 2.00E-02

###

experiment: Extrapolated human dosimetry (OLINDA/EXM, ICRP-89 phantoms); conditions: ICRP 89 Adult Female, extrapolated
compounds and their reported Absorbed dose (AD average) Right colon
The figure you give is taken to be in mGy/Mbq; do not add the unit.

Q: Which Absorbed dose (AD average) Right colon value belongs to N#C[C@@H]1CC(F)(F)CN1C(=O)CNC(=O)c1ccnc2ccc(OCCCCNC(=O)CC[C@H](NC(=O)CN3CCN(CC(=O)[O-])CCN(CC(=O)[O-])CCN(CC(=O)[O-])CC3)C(=O)NCCCCOc3ccc4nccc(C(=O)NCC(=O)N5CC(F)(F)C[C@H]5C#N)c4c3)cc12.[161Tb+3] [[^161Tb]Tb-DO3A.Glu.(FAPI)2] ?
A: 3.76E-02

Q: Which Absorbed dose (AD average) Right colon value belongs to N#C[C@@H]1CC(F)(F)CN1C(=O)CNC(=O)c1ccnc2ccc(OCCCCNC(=O)CC[C@H](NC(=O)CN3CCN(CC(=O)[O-])CCN(CC(=O)[O-])CCN(CC(=O)[O-])CC3)C(=O)NCCCCOc3ccc4nccc(C(=O)NCC(=O)N5CC(F)(F)C[C@H]5C#N)c4c3)cc12.[177Lu+3] [[^177Lu]Lu-DO3A.Glu.(FAPI)2] ?
A: 4.88E-02

Q: Which Absorbed dose (AD average) Right colon value belongs to N#C[C@@H]1CC(F)(F)CN1C(=O)CNC(=O)c1ccnc2ccc(OCCCCNC(=O)CC[C@H](NC(=O)CCC(C(=O)O)N3CCN(CC(=O)[O-])CCN(CC(=O)[O-])CCN(CC(=O)[O-])CC3)C(=O)NCCCCOc3ccc4nccc(C(=O)NCC(=O)N5CC(F)(F)C[C@H]5C#N)c4c3)cc12.[177Lu+3] (stereo partly shown) [[^177Lu]Lu-DOTAGA.Glu.(FAPI)2] ?
A: 6.88E-02

Q: Which Absorbed dose (AD average) Right colon value belongs to N#C[C@@H]1CC(F)(F)CN1C(=O)CNC(=O)c1ccnc2ccc(OCCCCNC(=O)CC[C@H](NC(=O)CCC(C(=O)O)N3CCN(CC(=O)[O-])CCN(CC(=O)[O-])CCN(CC(=O)[O-])CC3)C(=O)NCCCCOc3ccc4nccc(C(=O)NCC(=O)N5CC(F)(F)C[C@H]5C#N)c4c3)cc12.[161Tb+3] (stereo partly shown) [[^161Tb]Tb-DOTAGA.Glu.(FAPI)2] ?
A: 4.24E-02
